Target: Ba/F3 Axl cells (Homo sapiens, UniProt P30530)
Sequence (P30530 whole entry, change not shown): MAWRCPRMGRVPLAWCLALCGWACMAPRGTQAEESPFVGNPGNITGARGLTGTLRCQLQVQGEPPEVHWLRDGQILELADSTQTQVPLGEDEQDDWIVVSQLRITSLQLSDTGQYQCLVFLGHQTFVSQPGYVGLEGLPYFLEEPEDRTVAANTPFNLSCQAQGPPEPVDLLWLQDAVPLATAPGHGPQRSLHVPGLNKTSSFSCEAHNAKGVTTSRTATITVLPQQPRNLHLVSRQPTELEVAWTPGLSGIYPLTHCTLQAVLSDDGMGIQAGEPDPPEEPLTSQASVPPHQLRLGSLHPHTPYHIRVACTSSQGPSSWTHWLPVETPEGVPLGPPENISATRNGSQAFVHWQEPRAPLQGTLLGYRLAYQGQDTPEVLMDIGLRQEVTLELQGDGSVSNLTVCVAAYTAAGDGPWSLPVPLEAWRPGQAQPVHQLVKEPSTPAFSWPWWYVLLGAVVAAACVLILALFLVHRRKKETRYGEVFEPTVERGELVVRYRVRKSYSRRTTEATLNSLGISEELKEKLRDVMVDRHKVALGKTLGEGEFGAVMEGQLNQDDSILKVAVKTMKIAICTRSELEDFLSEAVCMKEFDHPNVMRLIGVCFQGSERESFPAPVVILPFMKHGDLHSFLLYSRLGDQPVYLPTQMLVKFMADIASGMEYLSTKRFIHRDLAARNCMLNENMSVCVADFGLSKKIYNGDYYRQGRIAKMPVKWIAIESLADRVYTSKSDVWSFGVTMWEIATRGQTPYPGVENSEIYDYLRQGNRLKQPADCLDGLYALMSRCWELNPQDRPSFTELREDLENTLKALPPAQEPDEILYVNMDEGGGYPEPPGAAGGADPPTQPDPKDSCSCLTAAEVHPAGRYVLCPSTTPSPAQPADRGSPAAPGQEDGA
Assay: Ba/F3 Axl cell proliferation, CellTiter-Glo Luminescent Cell Viability Assay
Assay type: cell-based
Conditions: 100 ng/mL rhGas6, 72 h incubation, read-out: IC50 (nM) against Ba/F3 Axl cells
Exercise: for every item that follows, state its recorded GI50.
One number for each entry, in nM.

COc1cc2nccc(Oc3ccc(NC(=O)c4cn(C(C)C)c(C#N)c(-c5ccc(F)cc5)c4=O)cc3F)c2cc1OC [Example 24]	0.36
CCn1cc(-c2cnc(N)c(-c3ccc(NC(=O)c4cn(C(C)C)c(C#N)c(-c5ccc(F)cc5)c4=O)cc3F)c2)cn1 [Example 3]	0.29

Would you be so kind as to report GI50 for each listed record?
1. CC(C)n1cc(C(=O)Nc2ccc(-c3cc(-c4cnn(C)c4)cnc3N)c(F)c2)c(=O)c(-c2ccc(F)cc2)c1C#N [Example 4]
2. COc1cc2nccc(Oc3ccc(NC(=O)c4cn(C)c(C#N)c(-c5ccc(F)cc5)c4=O)cc3F)c2cc1OC [Example 21]
3. [2H]C([2H])([2H])n1cc(-c2cnc(N)c(-c3cc(F)c(NC(=O)c4cn(C(C)C)c(C#N)c(-c5ccc(F)cc5)c4=O)cc3F)c2)cn1 [Example 34]
4. CC(C)n1cc(C(=O)Nc2cc(F)c(-c3cc(-c4cnn(C)c4)cnc3N)cc2F)c(=O)c(-c2ccc(F)cc2)c1C#N [Example 6]
5. CCn1cc(-c2cnc(N)c(-c3cc(F)c(NC(=O)c4cn(C(C)C)c(C#N)c(-c5ccc(F)cc5)c4=O)cc3F)c2)cn1 [Example 33]

A:
0.57
0.29
0.28
0.49
0.23
